All values here come from PubChem BioAssay.

- TARGET_SYSTEM: Calmodulin-1 (Homo sapiens) (UniProt P0DP23)
- ASSAY_NOTES: calcium-bound CALM1 binders on microarrays, profiling panel, artefact control for SMM control-protein annotation, biochemical, small-molecule microarray, Cy5-labelled CALM1, plus calcium (AID 1112);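 note: score merges spot fluorescence with signal to noise from triplicate slides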
- APPLIED_CONDITIONS: Cy5-CALM1 binding fluorescence, higher = more signal
Each entry below carries its reported composite z-score.

Solved entries (count: 2):
C=CCC(OC(C)=O)[C@@H]1[C@@H](N(Cc2cccc3ccccc23)C(=O)Cc2ccc(F)cc2)c2cc(OCCCO)ccc2N1C(=O)Cc1ccc2ccccc2c1 (stereo partly drawn)    0.158
Cc1ccc(S(=O)(=O)c2cc3oc2CC[C@@H](CO)NC(=O)N(C)Cc2cn(nn2)C[C@H](Cc2ccccc2)NC3=O)cc1    0.175

Now look at this entry.
-- ask Fill in composite z-score for record `COc1ccc([Si](C)(C)[C@H]2[C@H](CCO)O[C@@]3(C(=O)N(Cc4ccccc4)c4ccc(N5C(=O)c6cccc7cccc5c67)cc43)[C@@H]2C)cc1`
-- reply 0.906

----------
- ASSAY_NOTES: basal S. cerevisiae growth modulation, no modifier, primary screen, OD600, strain BY4716, 24 h, basal condition (AID 1173)
- APPLIED_CONDITIONS: OD600, 24 h, higher = more signal, called active from +8 up or from −8 down
# z-score values compiled below
Reply with just the number.

Please review the entries below; each comes with its answer.
CC(C)[Si]1(C(C)C)OCc2cc(C3CC3)nc(-c3ccccc3)c21    -1.53
Cc1ccc(N2C(=O)c3ccccc3[C@@H](C(=O)NCc3ccccc3)[C@@H]2c2ccc(CO)cc2)nc1    0.0819
Cc1ccc(S[C@]2(C(=O)O)CC(=O)N(Cc3cc(C(F)(F)F)cc(C(F)(F)F)c3)[C@@H]2c2ccc(CO)cc2I)cc1    -3.06

Next, consider the following compound.
-- ask Provide measured z-score value, entry: `CCc1cccc(NC(=O)O[C@H]2[C@H](OC(=O)Nc3ccccc3)[C@@H](OC(=O)Nc3ccccc3)[C@@H](OC)O[C@@H]2CO)c1`
-- reply 0.28

----------
- ASSAY_NOTES: small-molecule binders of probe aLefty1, primary screen, biochemical, small-molecule microarray, 635/667 nm fluorescence (AID 1153);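 note: score merges spot fluorescence with signal-to-noise ratio from the scanned slide images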
- APPLIED_CONDITIONS: higher = more signal
Entries and their composite z-score
Just the number.

CCN1C(C)=C(C(=O)OC)[C@@H](c2ccccc2)N2C(=O)[C@@]3(C(=O)OC)O[C@@]12[C@@H]1C(=O)CCC[C@@H]13    -0.0518
COCCOC(=O)N1C(=O)[C@@]2(c3cc(C#CCNC(N)=O)ccc31)[C@H](c1ccc(OCCO)cc1)N1[C@H](c3ccccc3)[C@H](c3ccccc3)OC(=O)[C@H]1[C@@H]2C(=O)N1CCCCCCC1    1.16

-- ask // fetch composite z-score given entry `CCOC(=O)C[C@H]1[C@H](OC(=O)Cc2ccc3c(c2)OCO3)[C@@H](NC(=O)c2ccc3ccccc3c2)c2cc(OCCCO)ccc2N1C(=O)Cc1ccc(OC)cc1`
-- reply -0.0626

-- ask For the molecule `Cc1ccc(S[C@]2(C(=O)NCCN3CCOCC3)CC(=O)N(C3Cc4ccccc4C3)[C@@H]2c2ccc(CO)cc2I)cc1` , give its reported composite z-score.
-- reply 0.392

-- ask Specify reported composite z-score for the molecule shown: `CCc1cccc(NC(=O)O[C@H]2[C@H](OC(=O)Nc3ccccc3)[C@@H](OC(=O)Nc3ccccc3)[C@@H](OC)O[C@@H]2CO)c1`
-- reply 0.424

-- ask Answer with the recorded composite z-score for the molecule listed here: `C=C(COC)/C(=C/C[C@@H](OC(=O)c1ccncc1)c1ccc(OCCO)cc1)c1cc(C(=O)OC)ccc1OC`
-- reply 0.0686

----------
- ASSAY_NOTES: basal 3T3-L1 adipocyte mitochondrial potential changes, profiling panel, cell-based, JC-1 fluorescence, 3T3-L1 adipocytes, 24 h, 100 nL compound (AID 1168); note: test concentration not given here
- APPLIED_CONDITIONS: JC-1 mitochondrial fluorescence, higher = more signal, called active from +8 up or from −8 down
Class definitions on z-score: low: < -0.4; middle: ≥ -0.4 and < 1; high: ≥ 1

CO[C@]12C=C(Br)[C@@H](C[C@@H]1c1ccccc1)[C@@]1(CO1)C2=O    high
COC(=O)[C@H]1[C@@H]2COc3ccccc3[C@H]2N[C@H]1C(=O)OC    low
CC(C)[Si]1(C(C)C)OCc2cc(C3CC3)nc(-c3ccccc3)c21    high
O=C1O[C@@H](c2ccccc2)[C@@H](c2ccccc2)N2[C@@H](c3ccc(O)cc3)[C@]3(C(=O)Nc4ccc(C#CC5(O)CCCCCC5)cc43)[C@@H](C(=O)Nc3nc4ccccc4s3)[C@H]12    low

-- ask Category of `COC(=O)[C@@]1(Cc2ccc(OC)cc2)[C@H]2c3cc(C(=O)N(C)C)n(Cc4ccc(C)c(F)c4F)c3C[C@H]2CN1C(=O)c1ccccc1` :
-- reply low

-- ask Returns: class label. Input: `C=C[C@H](OC)[C@@H](OC(=O)Nc1ccc(SC)cc1)c1ccc(O)c(F)c1`
-- reply high

-- ask Form: Item = `Cc1ccc([C@@H]2CC=C(C(=O)O)[C@H](c3ccccc3)N2S(=O)(=O)c2ccc(C)cc2)cc1` ; Class = ?
-- reply middle

-- ask Record `O=C1O[C@@H](c2ccccc2)[C@@H](c2ccccc2)N2[C@@H](c3ccc(O)cc3)[C@]3(C(=O)Nc4ccccc43)[C@@H](C(=O)N3CCN(c4ncccn4)CC3)[C@H]12` — which class?
-- reply high

-- ask Input `CCOC(=O)C1=CC[C@@H](c2ccccc2)N(S(=O)(=O)c2ccc(C)cc2)[C@H]1C` ; output its category
-- reply middle

-- ask Form field 'band' for `COCCOC(=O)N1C(=O)[C@@]2(c3cc(C#CCNC(N)=O)ccc31)[C@H](c1ccccc1OCCO)N1[C@H](c3ccccc3)[C@H](c3ccccc3)OC(=O)[C@H]1[C@@H]2C(=O)NC[C@H](O)c1ccccc1`
-- reply middle

-- ask State the class of the compound shown: `O=C1C[C@@](C(=O)NC2CC2)(c2ccc([N+](=O)[O-])cc2)[C@@H](c2ccc(CO)cc2I)N1CC12CC3CC(CC(C3)C1)C2`
-- reply low

-- ask Class? Entry: CN(C)c1ccc(C(O)C2C=CC3C(=O)NC(=O)C3N2Nc2ccc(Cl)cc2Cl)cc1 (stereo not given)
-- reply low

-- ask Please report the category associated with `CCCCCCc1nc(C2CC2)c(C)c2c1[Si](C(C)C)(C(C)C)OC2` , nothing else.
-- reply high

-- ask Lab note: which band did `O=C/C=C/c1ccc(/C=C/c2ccccc2)cc1` land in?
-- reply high

----------
- ASSAY_NOTES: anti-His antibody binders, primary screen, artefact control for SMM control protein annotation, biochemical, small-molecule microarray, 635 nm fluorescence (AID 1128);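 note: score merges feature fluorescence with signal-to-noise for each printed compound spot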
- APPLIED_CONDITIONS: anti-His Alexa647 antibody binding, higher = more signal
Assign a class from recorded composite z-score; defined classes: bucket 1: < 0.009; bucket 2: ≥ 0.009 and < 2; bucket 3: ≥ 2

C=CCN1C(=O)[C@@]2(Cc3ccccc3)N=C(c3ccc(OCCCO)cc3)O[C@H]2c2ccccc21    bucket 2
O=C1OCCC/C=C\[C@H]2OC34C=CCN(CCN5CCOCC5)C(=O)[C@H]3N(CCCCCO)C(=O)[C@@H]4C12 (some centres undefined)    bucket 1

-- ask Into which category would you place `CC(=O)NCCCC[C@@H]1NC(=O)[C@@H]2C[C@H](C(=O)NCCCCCCN(C)C)[C@H](c3ccc(O)cc3)N2C1=O` ?
-- reply bucket 3

-- ask Looking at `Cc1ccc(S[C@]2(C(=O)NC(C)C)CC(=O)N(C3Cc4ccccc4C3)[C@@H]2c2ccc(CO)cc2)cc1` , which class would you pick?
-- reply bucket 3

-- ask Each compound maps to one class by composite z-score. Which class for C[C@@H]1NC(=O)[C@H](Cc2ccccc2)NC(=O)[C@@]23C(=O)N[C@@H](Cc4ccccc4)C2[C@H](C)[C@@]2(C)O[C@H]2C3/C=C/C/C=C\CNC1=O (some centres undefined) ?
-- reply bucket 2

-- ask Please report the category associated with `COCCOC(=O)N1C(=O)[C@@]2(c3cc(C#CCNC(N)=O)ccc31)[C@H](c1ccc(OCCO)cc1)N1[C@H](c3ccccc3)[C@H](c3ccccc3)OC(=O)[C@H]1[C@@H]2C(=O)N1CCCCCCC1` , nothing else.
-- reply bucket 1

----------
- ASSAY_NOTES: modulators of S6 phosphorylation in cells, primary screen, cell-based, A549, cytoblot, luminescence, serum-stimulated (AID 1158);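 note: serum-stimulated A549 lung adenocarcinoma cells; signal is phosphorylated S6 detected by cytoblot immunostaining with HRP secondary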
- APPLIED_CONDITIONS: A549 phospho-S6 cytoblot, 5 h, higher = more signal
PROPERTY_MEASURED: z-score
Keep the answer to the number alone.

-- ask Consider the compound `CO[C@@H]1COC(=O)[C@@H]2CCCN2C(=O)CC=C[C@@H](C)[C@H](OC)COC(=O)[C@@H]2CCCN2C(=O)CC=C[C@H]1C` and give its recorded z-score.
-- reply 0.956
